# Tested on: OVCAR-4 ovarian
# ASSAY_COMMENT: NCI tumour cell line growth inhibition, 48 h
RESULT_TYPE: TGI

COMPOUND	SYSTEM_NAME	RESULT
O=C(N/N=C\c1c(O)ccc2ccccc12)C1CC1	OVCAR-4 ovarian	> 100 µM
COc1ccc(CCn2nccc2C)cc1	OVCAR-4 ovarian	> 100 µM
CC(C)NCC(O)c1cc(OCc2ccccc2)c(OCc2ccccc2)cc1NC(=O)CCC(=O)O (stereo not drawn)	OVCAR-4 ovarian	24.8 µM
COC1CC(OC2C(C)OC(OC3C(C)OC(OC4C(C)OC(O[C@H]5CC[C@@]6(C)C(=CC[C@]7(O)[C@@H]6C[C@@H](OC(=O)/C=C/c6ccccc6)[C@@]6(C)[C@]7(O)CC[C@@]6(O)C(C)=O)C5)CC4OC)CC3OC)CC2OC)OC(C)C1O (stereo partly drawn)	OVCAR-4 ovarian	> 12.5 µM
O=C(CCN1CCCC1)CC(c1ccccc1)c1c(O)c2ccccc2oc1=O (stereo not drawn)	OVCAR-4 ovarian	> 100 µM
COC(=O)C1CC2C=CC1N(C(=O)OCc1ccccc1)C2 (stereo not drawn)	OVCAR-4 ovarian	> 100 µM
O=C(O)C1CCCN1C(=O)c1cc(Cl)ccn1 (stereo not drawn)	OVCAR-4 ovarian	> 100 µM

Here is another compound to look at.
TGI in this record for Cc1ccc2c(c1)C(=O)c1[nH]c3ccc(F)cc3c1CO2 : 88.8 µM

* * *

# Tested on: OVCAR-3 ovarian
# ASSAY_COMMENT: NCI tumour cell line growth inhibition, 48 h
RESULT_TYPE: TGI

Past entries and their recorded results:
COMPOUND	RESULT
CC1(CO)OC(n2cnc3cncnc32)CC1O (centres undefined)	> 100 µM
CC1(C)C(=O)/C(=C\c2ccccn2)C[C@]2(C)[C@H]3CC[C@@H]4[C@@H](C(=O)/C=C/c5ccccn5)CC[C@@]4(C)[C@]3(C)CC[C@@H]12	1.85 µM
CCC1=C(c2ccc(OC)cc2)CC[C@@]2(CCNC2=O)[C@@H]1C	> 100 µM
COC(=O)[C@]12CSCN1C(=O)C(C(C)=O)=NN2C(=O)[C@](OC)(c1ccccc1)C(F)(F)F	> 100 µM

For record CC1=NN(c2nc(N)nc(/C(C#N)=C\C3COc4ccccc4C3=O)n2)C(C)(C)C1 (centres undefined) the listed TGI is > 100 µM

get_value(item= NC(N)=C1CN(C2CCCCC2)C(=O)NC1=O , readout=TGI) returns > 100 µM

Field TGI (entry CN1CCN(CC(=O)Nc2cccc3ccccc23)CC1 ) reads > 100 µM

Entry CC(=O)OC/C=C(\C)CCC(Br)C(C)(C)Br (centres undefined) ; TGI = > 10 µM

The compound Nc1cc2c(nc3c4ccccc4c(N)cc3[n+]2-c2cccc3ccccc23)c2ccccc12 (tested in a mixture with another compound) showed TGI equal to 4.56 µM

* * *

# System: SK-OV-3 ovarian
# ASSAY_COMMENT: NCI tumour cell line growth inhibition, 48 h; in the data active means GI50 below about 0.43 µM; inactive means the rest
Use one of these outcomes when replying: active, inactive

Before answering, review these 5 worked examples.
COMPOUND	SYSTEM_NAME	CATEGORY_LABEL
COc1ccc2c(c1)C(=O)c1c-2n(CCCNCCO)c(=O)c2ccccc12	SK-OV-3 ovarian	active
FC(F)(F)c1cccc(Nc2nc3ccccc3nc2Nc2cccc(C(F)(F)F)c2)c1	SK-OV-3 ovarian	inactive
CCN(CC)c1ccc(/C=C2\SC(=O)C(Nc3nnc(-c4cccnc4SCc4ccccc4)o3)C2=O)cc1 (configuration not stated)	SK-OV-3 ovarian	inactive
CC(=O)[CH-]C(C)=O.CC(=O)[CH-]C(C)=O.[CH2-]CCCCCCC.[CH2-]CCCCCCC.[Sn+4]	SK-OV-3 ovarian	inactive
Cc1c(C(N)=O)sc2c1c(=O)n(Cc1ccccc1)c1nnc(SCC(=O)Nc3ccc(Cl)cc3)n21	SK-OV-3 ovarian	inactive

INPUT: Per the records of this test, what outcome belongs to O=C1c2ccccc2C(=O)c2c(N=Nc3[nH]c(=S)[nH]c3O)cccc21 ?
OUTPUT: inactive

INPUT: Lab log entry: COc1cccc(/C=N/Nc2ncnc3c2cnn3-c2cccc(OC)c2)c1 — outcome as called in the assay?
OUTPUT: inactive

INPUT: Per the records of this test, what outcome belongs to Cc1nc2cc(-n3c(-c4ccc(F)cc4)nc4ccccc4c3=O)ccc2n1Cc1ccccc1 ?
OUTPUT: inactive
